- measurement.target: NAMPT (Homo sapiens, UniProt P43490)
- Construct: His tag; host or cells: E. coli
- Sequence (P43490 whole entry): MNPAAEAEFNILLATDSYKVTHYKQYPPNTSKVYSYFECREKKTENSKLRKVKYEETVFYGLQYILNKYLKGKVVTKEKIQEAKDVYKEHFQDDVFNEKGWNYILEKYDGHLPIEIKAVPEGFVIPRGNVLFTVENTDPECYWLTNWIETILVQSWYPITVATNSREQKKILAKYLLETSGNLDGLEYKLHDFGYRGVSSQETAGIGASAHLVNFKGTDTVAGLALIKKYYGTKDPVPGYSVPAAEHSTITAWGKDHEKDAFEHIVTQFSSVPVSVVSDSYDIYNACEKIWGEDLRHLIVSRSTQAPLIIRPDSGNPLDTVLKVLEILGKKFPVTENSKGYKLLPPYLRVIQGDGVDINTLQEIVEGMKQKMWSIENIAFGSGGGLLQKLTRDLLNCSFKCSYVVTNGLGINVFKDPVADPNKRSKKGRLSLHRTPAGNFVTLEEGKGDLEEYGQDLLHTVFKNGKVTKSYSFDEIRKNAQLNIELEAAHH
- experiment: Biochemical inhibition assay: NAMPT enzymatic reaction, NMN quantified by mass spectrometry
- test.settings: NAMPT enzymatic assay; read-out: Biochem IC50
test.readout: IC50 (nM)
Numbers only, in nM.

Ask | Fill in IC50 for record `COc1cc(C)cc(S(=O)(=O)c2ccc(CNC(=O)c3cc4ccncc4s3)cc2)c1OC`
Reply | 6

Ask | Fill in IC50 for record `O=C(NCc1ccc(S(=O)(=O)c2ccc(F)c(OCC(F)(F)F)c2)cc1)c1cc2ccncc2o1`
Reply | 8.7

Ask | Fill in IC50 for record `Cc1cc(-n2cccn2)ccc1S(=O)(=O)c1ccc(CNC(=O)c2ccc3nccn3c2)cc1`
Reply | 7.99

***
Ask | Fill in IC50 for record `O=C(NCc1ccc(S(=O)(=O)c2cc(C(F)(F)F)ccn2)cc1)c1cc2ccncc2o1`
Reply | 13.9

Data origin, for the record: patent US12336981B2
